Assay: gradient 5% acetonitrile 3 min, to 50% in 2 min, to 85% in 15 min, held 3 min, 100 µL/min
Conditions: column: Zorbax Extend-C18 2.1 x 50 mm; eluents: water / acetonitrile, 0.1% formic acid
QUANTITY NAME: RP-LC retention time (s)

Solved cases (2 shown):
COc1ccc(N2CC(c3noc(-c4ccc(C)cc4C)n3)CC2=O)cc1OC (stereo not given) = 1000
Cc1nc2cc(-c3noc(-c4ccc(Br)cc4)n3)ccc2o1 = 1230

P: CCc1c(C)nc2ncnn2c1N1CCCC1
Q: CC(C)Cc1ccc(S(=O)(=O)N2CCCC(CNC(=O)c3ccccc3)C2)cc1 (stereo not given)
Could you check which of P and Q has a smaller value for RP-LC retention time? To answer, give the label that identifies your chosen option.
P
(P: 733 s, Q: 1120 s)

1: COc1cccc(N2CCN(C(=O)c3cn(-c4ccc(NC(=O)C5CC5)cn4)cn3)CC2)c1
2: Cc1nc(C2(C)CCN(S(=O)(=O)c3cc(C)c(C)cc3C)CC2)no1
Quick check, higher RP-LC retention time between 1 and 2 ? To answer, give the label that identifies your chosen option.
2

a: Cc1ccc(CN2CCn3c(nn(C)c3=O)C2)nc1
b: COc1ccc(Oc2cc3c(cc2NC(=O)Nc2cccc(OC)c2)n(C)c(=O)n3C)cc1
Quick check, higher RP-LC retention time between a and b ? To answer, give the label that identifies your chosen option.
b
